# Test system: T1, human GLP-1R (human), P43220
# T1 chain: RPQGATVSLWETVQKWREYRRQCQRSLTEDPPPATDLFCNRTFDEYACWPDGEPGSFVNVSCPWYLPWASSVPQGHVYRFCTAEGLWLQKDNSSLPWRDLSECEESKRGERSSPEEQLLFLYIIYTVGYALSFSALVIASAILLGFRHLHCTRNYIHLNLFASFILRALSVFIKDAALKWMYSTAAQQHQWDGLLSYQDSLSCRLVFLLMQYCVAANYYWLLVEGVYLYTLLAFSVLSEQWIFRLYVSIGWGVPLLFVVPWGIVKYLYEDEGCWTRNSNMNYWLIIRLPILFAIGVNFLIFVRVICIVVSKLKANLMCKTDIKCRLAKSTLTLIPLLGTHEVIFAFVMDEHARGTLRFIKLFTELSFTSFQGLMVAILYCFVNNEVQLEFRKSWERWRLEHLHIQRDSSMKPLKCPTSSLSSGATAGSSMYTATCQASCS
Non-standard residues stand in square brackets, D forms with d. Groups on a side chain read outwards from the residue. Primed or numbered codes have the meaning given here. No end group written: not given here. *: point of attachment. C20 diacid = O=C(O)CCCCCCCCCCCCCCCCCCC(=O)*; αMeF = C[C@](N)(Cc1ccccc1)C(=O)O; Lauroyl = CCCCCCCCCCCC(=O)*; Iva = CC[C@](C)(N)C(=O)O; PEG2′ = not defined here; Aib = CC(C)(N)C(=O)O
Recorded metric: Agonist activity (EC50, M)

{"columns": ["Binder", "Agonist activity (EC50, M)"],
 "data": [
  ["Y[Aib]EGTFISDYSK([PEG(2)-C20 diacid])ALDRIAQQNFVNW[Iva]LAQRPSSGAPPPS (ends and bridges not checked) [Compound 381]", "> 1e-06 M"],
  ["Y[Aib]EGTFISDYSK([PEG(2)-Lauroyl])ALDRIHQQD[αMeF]VNWLLAQRPSSGAPPPS (ends and bridges not checked) [Compound 208]", "> 1e-06 M"],
  ["Ac-Y[Aib]EGTFISDYSIALDRIAQ[Aib]S[αMeF]VNW[Iva]LAQRPSSGAPPPSR (ends and bridges not checked) [Compound 155]", "> 1e-06 M"]
]}

Next:
Lab book: Agonist activity (EC50, M) of Y[Aib]EGTFISDYSK([PEG2′-Lauroyl])ALDRIAQQDFVNWLLAQRPSSGAPPPSR (ends and bridges not checked) [Compound 184] noted as 3e-08 M
